Reference source: patent US9562035B2

- System: A2780 ovarian cells
- protocol: A2780 Ovarian Cell Proliferation Assay in Lipid Reduced Medium, without Palmitate
- Type: cell-based
- settings: Homo sapiens, A2780; lipid reduced medium, without palmitate, 96 h, MTT; read-out: Proliferation A2780 w/o Palmitate pIC50 (converted)
- Experimental: The biological assays described below correspond to comparative assays for ovarian cell proliferation. […] Compounds active in the absence of palmitate would not be expected to be active in the control. 2500 cells were seeded in a 96-well clear well plate in 200 μL RPMI1640 with 10% Fetal Calf Serum (Hyclone), and incubated at 37° C., 5% CO2. Blanks were wells without cells. […] The absorbance was measured at 544 nm on a SPECTRAMAX. […]
IC50 values by entry
measuredParameter: IC50 (µM)

- compound: "Cc1ccc(C(=O)N2CCC(c3ccc(-c4cnn(C)c4)cc3)C2)cc1NC(=O)c1ccc(N2CCOCC2)nc1 (stereo not shown) [Compound 204]"
  measuredParameter: "IC50"
  observedValue: 0.107
- compound: "Cc1ccc(C(=O)N2CCC(c3ccc(-c4cnn(C)c4)cc3)CC2)cc1NC(=O)C1CCN(CC(C)(C)C)CC1 [Compound 178]"
  measuredParameter: "IC50"
  observedValue: 0.0269
- compound: "CC(C)Nc1ccc(C(=O)Nc2cc(C(=O)N3CCC(c4ccc(-c5cnn(C)c5)cc4)CC3)ccc2NC2CC2)cn1 [Compound 283]"
  measuredParameter: "IC50"
  observedValue: 0.363
- compound: "CC(C)Nc1ccc(C(=O)Nc2cc(C(=O)N3CCC(c4ccc(-c5ccncc5)cc4)CC3)ccc2Cl)cn1 [Compound 72]"
  measuredParameter: "IC50"
  observedValue: 0.513
- compound: "Cc1ccc(C(=O)N2CCC(c3ccc(-c4cnn(-c5cccnc5)c4)cc3)CC2)cc1NC(=O)c1ccc(NC(C)C)nc1 [Compound 261]"
  measuredParameter: "IC50"
  observedValue: 0.112
- compound: "Cc1ccc(C(=O)N2CCC(c3ccc(-c4cnn(C)c4)cc3)CC2)cc1NC(=O)c1cc(F)ccc1C [Compound 137]"
  measuredParameter: "IC50"
  observedValue: 0.417
- compound: "CC(C)Nc1ccc(C(=O)Nc2cc(C(=O)N3CCC(c4ccc(-c5ccnc6ccccc56)cc4)CC3)ccc2Cl)cn1 [Compound 68]"
  measuredParameter: "IC50"
  observedValue: 0.195
- compound: "Cc1ccc(C(=O)N2CCC(c3ccc(-c4cnn(C)c4)cc3)CC2)cc1NC(=O)C1CN(C)C1 [Compound 222]"
  measuredParameter: "IC50"
  observedValue: 0.00871
- compound: "Cc1ccc(C(=O)N2CCC(c3ccc(-c4cnn(C)c4)cc3)CC2)cc1NC(=O)c1ccc(Cl)nc1 [Compound 102]"
  measuredParameter: "IC50"
  observedValue: 0.0363
- compound: "Cc1ccc(C(=O)N2CCC(c3ccc(-c4cnn(C)c4)cc3)CC2)cc1NC(=O)C1CCN(C2CCCC2)CC1 [Compound 180]"
  measuredParameter: "IC50"
  observedValue: 0.0166
- compound: "Cc1ccc(C(=O)N2CC(c3ccc(-c4cnn(C)c4)cc3)C2)cc1NC(=O)c1ccc(N2CCN(C)CC2)nc1 [Compound 141]"
  measuredParameter: "IC50"
  observedValue: 0.0363
- compound: "Cc1ccc(C(=O)N2CCC(c3ccc(-c4cnn(C)c4)cc3)CC2)cc1NC(=O)c1ccc(F)cc1 [Compound 116]"
  measuredParameter: "IC50"
  observedValue: 0.126
- compound: "Cc1ccc(C(=O)N2CCC(c3ccc(-c4cnn(C)c4)cc3)CC2)cc1NC(=O)C1CCN(C(C)C)C1 (stereo not shown) [Compound 207]"
  measuredParameter: "IC50"
  observedValue: 0.182
- compound: "CNc1ccc(C(=O)N2CCC(c3ccc(-c4cnn(C)c4)cc3)CC2)cc1NC(=O)c1ccc(NC(C)C)nc1 [Compound #279]"
  measuredParameter: "IC50"
  observedValue: 0.0417
- compound: "Cc1ccc(C(=O)N2CCC(c3ccc(-c4cnn(C5CCOCC5)c4)cc3)CC2)cc1NC(=O)c1ccc(NC(C)C)nc1 [Compound 217]"
  measuredParameter: "IC50"
  observedValue: 0.214
- compound: "CC(C)Nc1ccc(C(=O)Nc2cc(C(=O)N3CCC(c4ccc(-c5cccnc5)cc4)CC3)ccc2Cl)cn1 [Compound 71]"
  measuredParameter: "IC50"
  observedValue: 0.447
